- experimental-target: Short transient receptor potential channel 4 (Mus musculus) (UniProt Q9QUQ5)
- Sequence (Q9QUQ5 whole entry, looked up): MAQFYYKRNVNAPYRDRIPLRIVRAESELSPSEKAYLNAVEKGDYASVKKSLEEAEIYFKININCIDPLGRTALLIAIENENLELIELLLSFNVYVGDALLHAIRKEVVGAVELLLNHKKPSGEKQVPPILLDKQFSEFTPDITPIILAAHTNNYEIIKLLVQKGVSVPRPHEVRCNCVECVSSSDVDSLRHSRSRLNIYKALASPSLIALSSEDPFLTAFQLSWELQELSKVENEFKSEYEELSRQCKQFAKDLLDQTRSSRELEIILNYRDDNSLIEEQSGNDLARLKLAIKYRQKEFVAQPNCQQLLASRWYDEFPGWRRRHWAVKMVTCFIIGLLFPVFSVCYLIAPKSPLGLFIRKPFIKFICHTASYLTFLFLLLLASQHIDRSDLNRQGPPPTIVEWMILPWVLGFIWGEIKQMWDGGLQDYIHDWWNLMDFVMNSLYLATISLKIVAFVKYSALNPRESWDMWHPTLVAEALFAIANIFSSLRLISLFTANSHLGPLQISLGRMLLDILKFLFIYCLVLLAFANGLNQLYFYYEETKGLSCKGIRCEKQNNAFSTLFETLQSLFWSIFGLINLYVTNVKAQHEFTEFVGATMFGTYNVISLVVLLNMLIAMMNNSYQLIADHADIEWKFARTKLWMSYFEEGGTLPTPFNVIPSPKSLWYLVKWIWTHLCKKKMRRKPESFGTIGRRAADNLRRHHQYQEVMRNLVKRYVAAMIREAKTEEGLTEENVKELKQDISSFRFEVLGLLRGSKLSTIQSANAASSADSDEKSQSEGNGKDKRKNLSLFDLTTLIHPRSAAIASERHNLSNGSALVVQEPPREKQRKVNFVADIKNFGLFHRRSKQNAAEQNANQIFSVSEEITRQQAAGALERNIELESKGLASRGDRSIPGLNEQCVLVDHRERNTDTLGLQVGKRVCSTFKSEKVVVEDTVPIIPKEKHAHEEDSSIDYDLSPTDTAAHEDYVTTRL
- test-method-notes: activators of mouse TRPC4 channel, primary screen, Fluo4 calcium, HEK293 TRPC4beta/mu-opioid cells (AID 2237)
- conditions: Fluo4 calcium fluorescence, at 10 µM
About 1,500 (0.48%) of roughly 310,000 compounds were called active.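 The calls were made as follows: active = B-score above 5 SD of library B-scores, and initial fluorescence ratio not above library mean plus 5 SD; inactive = the rest.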 Shown is part of a subset that was picked to be rich in actives.
Output constraint: value belongs to active, inactive

Check out these entries, answers already filled in.
Problem: Record request — test call for OCCNCc1cccc(OCc2ccccc2Cl)c1
Result: inactive

Problem: For O=C(COc1cc(Cl)c(Cl)cc1Cl)NCCc1ccccn1 , what call appears in the results of this test?
Result: active

Problem: // outcome(item) with item = COn1c(-c2ccc(Cl)cc2Cl)nc2ncccc21
Result: inactive

Problem: GET /call?item= O=C(Nc1ccc2ccccc2c1)/C(=C/c1cccc(Br)c1)NC(=O)c1ccco1 returns the recorded outcome of this test.
Result: inactive

Problem: Lab log entry: OCCNCCOc1ccc(Cl)c(Cl)c1 — outcome as called in the assay?
Result: active

Further cases:
Problem: Name the outcome recorded for CCc1ccc(-c2nn(-c3ccccc3)cc2CSC(=N)N)cc1 in the assay.
Result: active
